Parameter: EC50. Scope: all listed entries.
- Test system: STING signaling pathway
- protocol_description: IFN-β production in THP1 cells (ELISA)
- Type: cell-based
- measurement_conditions: Homo sapiens, THP-1, 18 h, read-out: IFN-β EC50

INSERT INTO measurements (compound_string, obs_value) VALUES
  ('CCc1nc(C)sc1C(=O)Nc1nc2cc(C(N)=O)cc(OCCCN3CCN(C(=O)OCCCN)CC3)c2n1C/C=C/Cn1c(NC(=O)c2cc(C)nn2CC)nc2cc(C(N)=O)cc(SC)c21', '100 to 1000 nM');

Consider the record given below.
Query: EC50; subject: "CCc1nc(C)sc1C(=O)Nc1nc2cc(C(N)=O)cc(OCCCN3CCN(C(=O)OCCCC4CCNCC4)CC3)c2n1C/C=C/Cn1c(NC(=O)c2cc(C)nn2CC)nc2cc(C(N)=O)cc(SC)c21"
100 to 1000 nM
